target: UniProt:O43613; test: Test Example 1-1: activating activity for OX1R (intracellular calcium, HEK293 with forced expression); conditions: calcium fluorescence, 3×10^-10 M to 1×10^-7 M, 10 nM OX-A as 100%
Sequence (O43613 whole entry): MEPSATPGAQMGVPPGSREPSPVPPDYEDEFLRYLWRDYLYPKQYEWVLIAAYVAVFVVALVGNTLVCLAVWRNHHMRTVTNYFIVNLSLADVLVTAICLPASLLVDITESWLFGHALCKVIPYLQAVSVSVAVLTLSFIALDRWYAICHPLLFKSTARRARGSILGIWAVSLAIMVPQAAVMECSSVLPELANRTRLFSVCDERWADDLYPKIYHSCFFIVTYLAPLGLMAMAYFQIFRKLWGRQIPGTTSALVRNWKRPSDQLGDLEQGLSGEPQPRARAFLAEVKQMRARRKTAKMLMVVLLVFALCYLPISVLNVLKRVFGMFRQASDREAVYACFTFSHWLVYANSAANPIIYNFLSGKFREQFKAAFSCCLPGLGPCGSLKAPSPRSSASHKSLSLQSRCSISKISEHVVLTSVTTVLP
quantity: EC50

Give the measured EC50 of "CO[C@@H]1CN(c2ncc(F)cn2)CC[C@@H]1[C@@H]1C[C@H]2CC[C@@H](C1)N2[C@@H](C(N)=O)C1CC1" .
> 0.1 µM

Measured values drawn from patent US20250051322A1 for this set.
